# measured_on: DDX3X N-IDR (human, UniProt O00571 1-132)
# Sequence (O00571 1-132): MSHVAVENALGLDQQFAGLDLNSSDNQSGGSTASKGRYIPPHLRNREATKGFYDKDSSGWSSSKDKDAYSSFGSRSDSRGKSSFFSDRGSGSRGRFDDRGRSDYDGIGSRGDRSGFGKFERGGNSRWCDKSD
# procedure_summary: EMSA; 125 mM KCl; EMSA: 20 mM K-phosphate pH 7.0, 125 mM KCl, 1 mM DTT, 0.005% Tween-20, 10% glycerol (1 mM ATP-Mg for MBP-FL/Core-C), gel at room temperature; ITC: 20 mM K-phosphate pH 7.0, 50 mM KCl, 25 C; NMR: 200 mM KCl (also 120 mM), 10 C, 50 uM
# conditions: protein: recombinant; tags: His6-SUMO tag cleaved (Ulp1); label: 5'-FAM in EMSA; G4
experimental_endpoint: Kd (nM)

binder	uom	value_observed
GCGGAGGGCGAGGCGGCGUGGACAG (structured_RNA) [RAC1 53-77]	nM	510
